Origin of measurements: PubChem BioAssay AID504467

- EXPERIMENT_DESCRIPTION: qHTS screen for small molecules that inhibit ELG1-dependent DNA repair in human embryonic kidney (HEK293T) cells expressing luciferase-tagged ELG1; also: nearly all actives have a fitted effect of over 55% in size
- SETTINGS: HEK293T ELG1-luciferase reporter, luminescence, 16 h, DNA damage induced by 5-fluorouridine; series mostly up to 46.1 µM
Screen size: about 330,000 compounds; about 7,700 (2.3%) were called active. Another 26% or so got no clear call; they are omitted. Calls follow the shape of the dose curve; as a rule, active = well fitted inhibition curve with a large enough effect; inconclusive = small, poorly fitted or top-dose-only effect, or effect the other way; inactive = flat fitted curve, though single readings scatter. The entries come from a sample that favours actives as a whole.
Outcomes: active, inactive

1. CN(C)CCCNC(=O)c1ccc2[nH]c3ccccc3c2c1
inactive
2. CCN(CC(=O)NCCc1ccccc1)S(=O)(=O)c1ccc(C)cc1
inactive
3. CN(c1ccccc1)S(=O)(=O)c1ccc(Cl)c(C(=O)OCC(=O)NCc2ccco2)c1
inactive
4. CCN(C(=O)COC(=O)CCC(=O)c1cccs1)C1CCCCC1
inactive
5. O=C(NCCCN1CCOCC1)c1cn(-c2ccccc2)nc1-c1ccc(F)cc1
inactive
6. CCN(CC(=O)NCCc1ccccc1)S(=O)(=O)c1ccccc1
inactive
7. Cc1ccc(S(=O)(=O)N(C)CC(=O)NCCc2c[nH]c3ccccc23)cc1
active
8. O=C(N/N=C/c1cc(Cl)cc([N+](=O)[O-])c1O)C(O)(c1ccccc1)c1ccccc1
active
9. CCN(CC)S(=O)(=O)c1ccc2[nH]cc(C(=O)NCCc3ccccc3)c(=O)c2c1
active
10. CN(c1ccccc1)S(=O)(=O)c1ccc(Cl)c(C(=O)OCC(N)=O)c1
inactive
11. Cc1ccc(S(=O)(=O)N(Cc2ccccc2)c2ccccn2)cc1[N+](=O)[O-]
inactive
12. N#C/C(=C(/O)COc1cccc2ccccc12)c1nc2ccccc2[nH]1
inactive
13. O=C(CN1CCCCCC1)N1c2ccccc2Sc2ccc(C(F)(F)F)cc21
inactive
14. O=C(Cc1cc(=O)[nH][nH]1)N/N=C/c1ccccc1[N+](=O)[O-]
inactive
15. Cc1ccc(OCCC(=O)OCC(=O)N2c3ccccc3NC(=O)C2(C)C)cc1
inactive
16. O=C(CN1CCCCC1)N1c2ccccc2Sc2ccc(C(F)(F)F)cc21
inactive
17. COc1cccc2cc(C(=O)NCc3ccc(C)cc3)c(=N)oc12
inactive
18. N#C/C(=C(/O)Cc1cccc2ccccc12)c1nc2ccccc2s1
active
19. Nc1c(Cl)cc(-c2csc(N3CCCC3c3nc4cc(Cl)c(Cl)cc4n3CCOCCO)n2)cc1Cl (stereo unspecified)
inactive
20. COc1ccc(/C=C/C(=O)OCC(=O)NC2CCCCCC2)cc1OC
inactive
21. COc1ccc(-n2c(C)cc(C(=O)CSc3nnc(-c4cccs4)o3)c2C)cc1
active

----------
- EXPERIMENT_DESCRIPTION: qHTS screen for small molecules that inhibit ELG1-dependent DNA repair in human embryonic kidney (HEK293T) cells expressing luciferase-tagged ELG1; also: nearly all actives have a fitted effect of over 55% in size; also: potency is read from the fitted curve at half-maximal effect
- SETTINGS: HEK293T ELG1-luciferase reporter, luminescence, 16 h, DNA damage induced by 5-fluorouridine; series mostly up to 46.1 µM
Among all 330,000 compounds or so, about 7,700 (2.3%) were called active. Another 26% or so got no clear call; they are omitted. Shown is part of a subset that was picked to be rich in actives.
REPORTED_ENDPOINT: Potency

1) COc1ccc(C(CNC(=O)c2ccc(NS(=O)(=O)c3ccc(F)c(C)c3)cc2)N(C)C)cc1 (configuration not stated)
inactive
2) Cc1nc2ccccn2c(=O)c1NC(=O)c1cccs1
inactive
3) CCC(=O)Nc1ccc(C(=O)CSc2nnc(CNc3ccc(Cl)cc3)o2)cc1OC
11.6 µM (active)
4) COc1ccc(NC(=O)CN(C)C(=O)c2cc(-c3ccc(C)o3)nc3ccccc23)cc1
20.6 µM (active)
5) CNC[C@H](CC1CCCCC1)NC[C@H](NCCC1CCCC1)[C@H](C)O
inactive
6) O=S(=O)(NC1CCCCC1N1CCN(c2ccccc2F)CC1)c1ccccc1 (configuration not stated)
inactive
7) Cc1cccc2nc(CSc3nc4[nH]ncc4c(=O)n3-c3cccc(Cl)c3)cc(=O)n12
20.6 µM (active)
8) COc1ccc(-c2cc(C(=O)NCCCN3CCCC3=O)c3ccccc3n2)cc1OC
20.6 µM (active)
9) O=C(NCCCO)c1cc2c([nH]c3ccccc32)c(-c2ccc(F)cc2)n1
18.3 µM (active)
10) COc1ccccc1NC(=O)c1cc(Cl)nc2ccccc12
inactive
11) COc1ccc(Cl)cc1NC(=O)CN(C)C(=O)c1ccc2n[nH]nc2c1
inactive
12) Cn1nnnc1SCC(=O)Nc1cccc(S(=O)(=O)N2CCCCC2)c1
inactive
13) C/C(=N\OC(=O)c1ccccc1)c1c(C)nc2cc(C)ccn12
inactive
14) CCOc1ccc(C(=O)NCC(=O)N2CCN(c3ccc(C(F)(F)F)cn3)CC2)cc1
inactive
15) Cc1ccc(Cl)c(OCC(=O)N(C)CC(=O)Nc2ccc(N3CCOCC3)cc2)c1
inactive
16) CCNS(=O)(=O)c1ccc(CCC(=O)N2CCN(c3cc(Cl)ccc3C)CC2)cc1
11.6 µM (active)
17) COc1ccc(-c2cc(C(=O)N(C)CC(=O)Nc3ccccc3Cl)c3ccccc3n2)cc1OC
2.06 µM (active)
18) O=C(CN1CCc2ccccc21)NC(c1ccccc1)c1ccccc1
inactive
19) COc1ccc(C2=NS(=O)(=O)N(C)C(C(=O)N(C)Cc3ccccc3)=C2)cc1
inactive
20) CCOc1ccc(CCNC(=O)CN2C(=O)NC3(CCc4ccccc43)C2=O)cc1OCC (configuration not stated)
inactive
21) COc1ccc(S(=O)(=O)Nc2ccc3oc(C)c(C(C)=O)c3c2)cc1
2.59 µM (active)
22) CN1CCN(Cc2nc3c(c(=O)n(C)c(=O)n3C)n2Cc2cccc3ccccc23)CC1
inactive
23) Cc1ccc(/C=N/NC(=O)c2cc3ccccc3cc2O)o1
inactive
24) Cc1ccc(-c2nn(-c3ccccc3)cc2C(=O)NCCCN2CCCC2=O)cc1
inactive
25) C/C=C/C(=O)Nc1ccc(N2CCN(c3ccc(C(F)(F)F)cn3)CC2)nc1
inactive
26) Cc1cc(=O)oc2c3c(cc(OCC(=O)N[C@H](C(=O)O)c4ccccc4)c12)OC(C)(C)CC3
inactive
27) COc1ccc(CN2C(CC(=O)Nc3cccnc3)c3ccc(C(F)(F)F)cc3S2(=O)=O)cc1 (configuration not stated)
inactive
28) COC(=O)[C@@]12CCCN1[C@H](c1ccc(-c3ccc(F)cc3)c(OC)c1)[C@H]1C(=O)N(C)C(=O)[C@H]12
inactive
29) N#C/C(=C\c1cccnc1)C(=O)Nc1ccc(SC(F)F)cc1
inactive
30) Cc1cccc(NC(=O)CSc2nc3[nH]ncc3c(=O)[nH]2)c1
inactive
31) COC(=O)c1[nH]c2cccc(C)c2c1NC(=O)CN1CCCc2ccccc21
18.4 µM (active)
32) C=C1CCC(N(O)c2cc(C)on2)C(=C)CCC2C1CC2(C)C (configuration not stated)
inactive
33) Cn1c(=O)c2c(SCC(=O)NCC3CCCO3)nc(CC(C)(C)C)nc2n(C)c1=O (configuration not stated)
inactive
34) Cc1cccc(C(=O)NCCCN2CCCC2=O)c1
inactive
35) Cc1ccn2c(=O)c(NC(=O)c3cccc4ccccc34)c(C)nc2c1
5.17 µM (active)
36) O=C(Cc1ccc([N+](=O)[O-])cc1)Nc1ccc(C(=O)N2CCOCC2)cc1
inactive
37) Cc1ccc(F)cc1NC(=O)N1CCCN(c2ccc(C(F)(F)F)cn2)CC1
5.17 µM (active)
38) COc1ccccc1NC(=O)CSc1nnc(CNC(=O)c2ccccc2F)o1
inactive
39) CCNS(=O)(=O)c1ccc(CCC(=O)N2CCN(c3ccc(OC)cc3)CC2)cc1
inactive
40) O=C(NNc1c2ccccc2nc2ccccc12)c1cc2ccccc2cc1O
13 µM (active)
41) Cn1c(=O)c2c(nc(N/N=C/c3cccs3)n2Cc2ccc(Br)cc2)n(C)c1=O
20.6 µM (active)
42) COc1ccc(C)cc1Nc1nc(C)nc2c1oc1ccccc12
5.17 µM (active)
